Cited source for all entries: ChEMBL document CHEMBL1201861

Test system: K5
Assay: cells
Assay type: functional, cell-based, Homo sapiens
Conditions: Homo sapiens, K5
Description: SANGER: Inhibition of human K5 cell growth in a cell viability assay.
recorded-endpoint: IC50

compound | IC50
Cc1ccc(Nc2nccc(N(C)c3ccc4c(C)n(C)nc4c3)n2)cc1S(N)(=O)=O | > 8 µM
COc1ccc(C2=N[C@@H](c3ccc(Cl)cc3)[C@@H](c3ccc(Cl)cc3)N2C(=O)N2CCNC(=O)C2)c(OC(C)C)c1 | 1.42 µM
O=C1N=C(NCc2cccs2)S/C1=C\c1ccc2ncccc2c1 | > 5 µM

Lab note: next compound to report on.
Answer with the recorded IC50 of COc1cc([C@@H]2c3cc4c(cc3[C@@H](O[C@@H]3O[C@@H]5CO[C@@H](C)O[C@H]5[C@H](O)[C@H]3O)[C@H]3COC(=O)[C@H]23)OCO4)cc(OC)c1O [ETOPOSIDE] only.
> 16 µM

----------
Test system: GB-1;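 further: growth of GB-1 cells judged by a viability assay, IC50 marks the concentration inhibiting growth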
Assay: cells
Format: functional, cell-based, Homo sapiens
Conditions: Homo sapiens, GB-1
Description: SANGER: Inhibition of human GB-1 cell growth in a cell viability assay.
Listing of entries alongside the reported IC50.

Answered cases to consult:
query-smiles | measured-on | IC50
CS(=O)(=O)CCNCc1ccc(-c2ccc3ncnc(Nc4ccc(OCc5cccc(F)c5)c(Cl)c4)c3c2)o1 | GB-1 | > 2000 nM
Cc1ccc(Nc2nccc(N(C)c3ccc4c(C)n(C)nc4c3)n2)cc1S(N)(=O)=O | GB-1 | 5730 nM
COc1ccc(-c2ccc3c(N4CCOC[C@@H]4C)nc(N4CCOC[C@@H]4C)nc3n2)cc1CO | GB-1 | > 2000 nM

Then this molecule:
Quickly give me recorded IC50 for `C=CCc1cccc(/C=N/NC(=O)CN2CCN(Cc3ccccc3)CC2)c1O`
> 2560 nM

----------
# IC50 annotations
System: Raji;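 further: cell viability assay measuring inhibition of Raji cell growth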
Experiment: cells
Type: functional, cell-based
Details: Homo sapiens
Description: SANGER: Inhibition of human Raji cell growth in a cell viability assay.

compound | IC50
CCC1=C[C@@H]2CN(C1)Cc1c([nH]c3ccccc13)[C@@](C(=O)OC)(c1cc3c(cc1OC)N(C)[C@H]1[C@@](O)(C(=O)OC)[C@H](OC(C)=O)[C@]4(CC)C=CCN5CC[C@]31[C@@H]54)C2 [VINORELBINE] | > 0.064 µM

Provide IC50 value for the following compound: CCc1nc(N)nc(N)c1-c1ccc(Cl)cc1 [PYRIMETHAMINE]
> 20 µM

For the compound Cc1cnc(-c2cnc(NCCNc3ccc(C#N)cn3)nc2-c2ccc(Cl)cc2Cl)[nH]1 [LADUVIGLUSIB] , report IC50.
> 2.56 µM

Indicate the recorded IC50 value for this compound: CN(c1ncccc1CNc1nc(Nc2ccc3c(c2)CC(=O)N3)ncc1C(F)(F)F)S(C)(=O)=O [PF-00562271]
> 2.56 µM

----------
Measured IC50 by item
Tested on: HAL-01;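 further: growth inhibition of human HAL-01 cells, read out with a cell viability assay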
Test: cells
Type: functional, cell-based
Details: Homo sapiens
Description: SANGER: Inhibition of human HAL-01 cell growth in a cell viability assay.
I only need the number, in µM, no unit after it.

compound | data-value
Cc1cc(Nc2cc(N3CCN(C)CC3)nc(Sc3ccc(NC(=O)C4CC4)cc3)n2)n[nH]1 | 1.17
Cn1cncc1[C@@](N)(c1ccc(Cl)cc1)c1ccc2c(c1)c(-c1cccc(Cl)c1)cc(=O)n2C | 6.74
COc1cc([C@@H]2c3cc4c(cc3[C@@H](O[C@@H]3O[C@@H]5CO[C@@H](C)O[C@H]5[C@H](O)[C@H]3O)[C@H]3COC(=O)[C@H]23)OCO4)cc(OC)c1O [ETOPOSIDE] | 3.8

--- query ---
Report the value of IC50 obtained on HAL-01 for O=C(/C=C/c1ccccc1)NC(NC(=S)Nc1cccc2cccnc12)C(Cl)(Cl)Cl (stereo not drawn) .
9.32
